ASSAY SYSTEM: Aurora kinase C (Homo sapiens, UniProt Q9UQB9)
Sequence (Q9UQB9 whole entry): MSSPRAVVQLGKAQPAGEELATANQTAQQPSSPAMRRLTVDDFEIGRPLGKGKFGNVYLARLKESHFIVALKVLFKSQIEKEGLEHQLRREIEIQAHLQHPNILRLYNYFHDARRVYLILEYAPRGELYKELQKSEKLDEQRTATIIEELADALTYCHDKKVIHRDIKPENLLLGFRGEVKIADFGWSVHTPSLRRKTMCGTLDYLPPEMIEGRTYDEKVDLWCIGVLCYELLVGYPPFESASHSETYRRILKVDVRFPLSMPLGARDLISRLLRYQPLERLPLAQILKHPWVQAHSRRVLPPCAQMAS

{"MOLECULE": "COc1cc2c(N3CCN(C(=O)Nc4ccc(OC(C)C)cc4)CC3)ncnc2cc1OCCCN1CCCCC1", "Kd": "Not Active"}
{"MOLECULE": "C[S+]([O-])c1ccc(-c2nc(-c3ccc(F)cc3)c(-c3ccncc3)[nH]2)cc1 (stereo not drawn)", "Kd": "Not Active"}
{"MOLECULE": "C#Cc1cccc(Nc2ncnc3cc(OCCOC)c(OCCOC)cc23)c1", "Kd": "Not Active"}

###

Test system UniProtKB P29317, Kd listed for each of the molecules.
Sequence (P29317 whole entry): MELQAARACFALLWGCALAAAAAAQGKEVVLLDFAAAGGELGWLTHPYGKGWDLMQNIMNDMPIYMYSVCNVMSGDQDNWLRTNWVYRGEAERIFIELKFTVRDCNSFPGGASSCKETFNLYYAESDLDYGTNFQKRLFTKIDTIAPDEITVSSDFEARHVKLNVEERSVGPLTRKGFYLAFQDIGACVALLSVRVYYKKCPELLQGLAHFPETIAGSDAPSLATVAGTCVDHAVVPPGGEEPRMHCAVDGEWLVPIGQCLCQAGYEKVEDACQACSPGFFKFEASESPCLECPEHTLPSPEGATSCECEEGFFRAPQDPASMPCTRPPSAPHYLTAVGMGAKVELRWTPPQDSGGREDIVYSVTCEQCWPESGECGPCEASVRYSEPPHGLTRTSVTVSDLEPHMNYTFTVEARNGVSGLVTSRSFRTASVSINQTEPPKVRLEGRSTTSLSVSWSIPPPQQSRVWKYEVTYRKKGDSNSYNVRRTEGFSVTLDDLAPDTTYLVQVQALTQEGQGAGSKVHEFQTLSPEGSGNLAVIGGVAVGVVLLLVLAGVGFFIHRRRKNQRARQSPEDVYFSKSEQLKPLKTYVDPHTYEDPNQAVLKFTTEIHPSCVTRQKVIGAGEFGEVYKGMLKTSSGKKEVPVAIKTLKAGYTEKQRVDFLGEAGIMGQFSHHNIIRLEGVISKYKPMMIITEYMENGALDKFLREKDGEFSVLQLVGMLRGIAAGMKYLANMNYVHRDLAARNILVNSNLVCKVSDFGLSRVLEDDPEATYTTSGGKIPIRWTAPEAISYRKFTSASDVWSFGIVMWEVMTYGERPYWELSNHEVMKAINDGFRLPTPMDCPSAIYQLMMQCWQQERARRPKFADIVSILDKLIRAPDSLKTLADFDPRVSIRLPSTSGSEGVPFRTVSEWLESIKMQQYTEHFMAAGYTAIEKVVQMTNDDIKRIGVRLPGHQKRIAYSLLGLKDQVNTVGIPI

{"MOLECULE": "COc1cc2c(N3CCN(C(=O)Nc4ccc(OC(C)C)cc4)CC3)ncnc2cc1OCCCN1CCCCC1 [TANDUTINIB]", "Kd": "Not Active"}
{"MOLECULE": "Cc1ccc(NC(=O)c2ccc(CN3CCN(C)CC3)cc2)cc1Nc1nccc(-c2cccnc2)n1 [IMATINIB]", "Kd": "Not Active"}
{"MOLECULE": "C#Cc1cccc(Nc2ncnc3cc(OCCOC)c(OCCOC)cc23)c1 [ERLOTINIB]", "Kd": "Not Active"}

###

// endpoint Kd / system Dual specificity protein kinase CLK4 (Homo sapiens, UniProt Q9HAZ1)

{"MOLECULE": "C#Cc1cccc(Nc2ncnc3cc(OCCOC)c(OCCOC)cc23)c1 [ERLOTINIB]", "Kd": "Not Active"}
{"MOLECULE": "COc1cc2c(N3CCN(C(=O)Nc4ccc(OC(C)C)cc4)CC3)ncnc2cc1OCCCN1CCCCC1 [TANDUTINIB]", "Kd": "Not Active"}
{"MOLECULE": "C[S+]([O-])c1ccc(-c2nc(-c3ccc(F)cc3)c(-c3ccncc3)[nH]2)cc1 (stereo not given) [SB-203580]", "Kd": "Not Active"}
{"MOLECULE": "O=c1ncn2nc(Sc3ccc(F)cc3F)ccc2c1-c1c(Cl)cccc1Cl [NEFLAMAPIMOD]", "Kd": "Not Active"}
{"MOLECULE": "Oc1ccc(-c2nc(-c3ccc(F)cc3)c(-c3ccncc3)[nH]2)cc1 [SB-202190]", "Kd": "Not Active"}

###

ASSAY SYSTEM: Calcium/calmodulin-dependent protein kinase type II subunit delta (Homo sapiens, UniProt Q13557)
Sequence (Q13557 whole entry): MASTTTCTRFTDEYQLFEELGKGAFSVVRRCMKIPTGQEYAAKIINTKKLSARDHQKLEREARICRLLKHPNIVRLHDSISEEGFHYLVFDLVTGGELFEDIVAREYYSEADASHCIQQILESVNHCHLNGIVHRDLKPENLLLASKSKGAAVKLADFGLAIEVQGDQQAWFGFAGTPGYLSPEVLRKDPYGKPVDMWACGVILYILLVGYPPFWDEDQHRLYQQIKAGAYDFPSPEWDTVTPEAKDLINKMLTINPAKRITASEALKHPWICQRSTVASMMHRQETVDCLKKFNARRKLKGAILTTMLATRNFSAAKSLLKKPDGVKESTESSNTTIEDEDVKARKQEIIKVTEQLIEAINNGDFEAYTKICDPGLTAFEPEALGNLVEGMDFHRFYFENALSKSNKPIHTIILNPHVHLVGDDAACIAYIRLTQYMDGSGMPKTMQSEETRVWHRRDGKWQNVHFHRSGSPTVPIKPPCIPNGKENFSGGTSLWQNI
MEASURED PARAMETER: Kd

{"SMILES REPR": "C#Cc1cccc(Nc2ncnc3cc(OCCOC)c(OCCOC)cc23)c1", "MEASURED PARAMETER": "Kd", "REPORTED MEASUREMENT": "Not Active"}
{"SMILES REPR": "COc1cc2c(N3CCN(C(=O)Nc4ccc(OC(C)C)cc4)CC3)ncnc2cc1OCCCN1CCCCC1", "MEASURED PARAMETER": "Kd", "REPORTED MEASUREMENT": "Not Active"}
{"SMILES REPR": "Oc1c2ccccc2c2c3c(cccc13)N=N2", "MEASURED PARAMETER": "Kd", "REPORTED MEASUREMENT": "Not Active"}
{"SMILES REPR": "CC[C@H](CO)Nc1nc(NCc2ccccc2)c2ncn(C(C)C)c2n1", "MEASURED PARAMETER": "Kd", "REPORTED MEASUREMENT": "Not Active"}
{"SMILES REPR": "Oc1ccc(-c2nc(-c3ccc(F)cc3)c(-c3ccncc3)[nH]2)cc1", "MEASURED PARAMETER": "Kd", "REPORTED MEASUREMENT": "Not Active"}

meta.source: ChEMBL document CHEMBL1144455
